Substrate: O=[N+]([O-])c1ccc(OP(=O)(O)O)cc1
Assay: chromogenic phosphatase assay, A400
Format: biochemical, Thermosynechococcus vestitus
Conditions: 50 mM Tris-HCl pH 8.3, 50 mM NaCl, 1 mM DTT, 2 mM MnCl2, 30 °C, pNPP 0.1-10 mM
result_type: Km

[
  {
    "protein": "tPphA (Thermosynechococcus vestitus BP-1; R13H) (protein) MDVAGLTDCGLIHKSNQDAFYIDEKHQRFFIVADGMGGHAGGEEASRLAVDHIRQYLETHLEDLQHDPVTLLRQAFLAANHAIVEQQRQNSARADMGTTAVVILLDEKGDRAWCAHVGDSRIYRWRKDQLQQITSDHTWIAQAVQLGSLTIEQARQHPWRHVLSQCLGREDLSQIDIQPIDLEPGDRLLLCSDGLTEELTDDVISIYLSEPNVQKAAAALVDAAKTHGGRDNVTVVVISV",
    "reported": "3.30 ± 0.17 mM"
  }
]

The protein listed as tPphA (Thermosynechococcus vestitus BP-1; R13S) (protein) MDVAGLTDCGLISKSNQDAFYIDEKHQRFFIVADGMGGHAGGEEASRLAVDHIRQYLETHLEDLQHDPVTLLRQAFLAANHAIVEQQRQNSARADMGTTAVVILLDEKGDRAWCAHVGDSRIYRWRKDQLQQITSDHTWIAQAVQLGSLTIEQARQHPWRHVLSQCLGREDLSQIDIQPIDLEPGDRLLLCSDGLTEELTDDVISIYLSEPNVQKAAAALVDAAKTHGGRDNVTVVVISV has a reported Km of 3.85 ± 0.32 mM
